Entries and their inhibition at 1 µM values follow.
Target Or Test System: hFAAH (Homo sapiens, UniProt O00519)
Construct: expressed in transfected cells; host or cells: HEK293-TRex (Invitrogen) stably transfected with hFAAH in the pcDNA5-Tet-off vector, or T84 human colon epithelial cells (endogenous hFAAH); used as a microsomal preparation
Sequence (O00519 1-579): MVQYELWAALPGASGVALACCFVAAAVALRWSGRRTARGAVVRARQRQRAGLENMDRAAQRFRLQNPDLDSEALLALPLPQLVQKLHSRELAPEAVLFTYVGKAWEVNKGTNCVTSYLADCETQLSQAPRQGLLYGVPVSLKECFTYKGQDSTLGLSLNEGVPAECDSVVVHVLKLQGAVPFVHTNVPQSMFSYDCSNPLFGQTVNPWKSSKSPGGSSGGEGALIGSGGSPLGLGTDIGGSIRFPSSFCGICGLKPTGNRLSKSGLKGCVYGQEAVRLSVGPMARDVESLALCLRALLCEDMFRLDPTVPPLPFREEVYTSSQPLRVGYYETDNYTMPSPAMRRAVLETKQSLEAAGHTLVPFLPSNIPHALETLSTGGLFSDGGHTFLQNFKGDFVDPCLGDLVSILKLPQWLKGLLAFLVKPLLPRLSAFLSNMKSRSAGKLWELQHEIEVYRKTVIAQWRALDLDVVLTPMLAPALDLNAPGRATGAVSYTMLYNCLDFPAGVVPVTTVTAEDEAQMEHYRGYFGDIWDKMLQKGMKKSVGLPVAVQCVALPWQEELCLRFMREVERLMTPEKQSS
Method Description: Fluorimetric assay with hFAAH microsomes (enzymatic, fluorescence based)
Format: biochemical
Condition Summary: compound at 1 uM, AA-AMC substrate

# example entries with known answers
compound="Cc1nc(C)c(CC(=O)N2Cc3ncnc(Nc4cnc5ccccc5c4)c3C2)s1 [Compound 50]" target_or_test_system="hFAAH (Homo sapiens, UniProt O00519)" experimental_result="< 25%"
compound="CC(C)(C)OC(=O)N1Cc2ncnc(Nc3cnc4ccccc4c3)c2C1 [Compound 45]" target_or_test_system="hFAAH (Homo sapiens, UniProt O00519)" experimental_result="> 50%"
compound="CC1(CN2Cc3ncnc(Nc4cnc5ccccc5c4)c3C2)COC1 [Compound 29]" target_or_test_system="hFAAH (Homo sapiens, UniProt O00519)" experimental_result="> 25%"
compound="FC(F)(F)Oc1ccccc1CN1Cc2ncnc(Nc3cnc4ccccc4c3)c2C1 [Compound 98]" target_or_test_system="hFAAH (Homo sapiens, UniProt O00519)" experimental_result="> 75%"
compound="Cc1c(CN2Cc3ncnc(Nc4cnc5ccccc5c4)c3C2)cnn1C [Compound 26]" target_or_test_system="hFAAH (Homo sapiens, UniProt O00519)" experimental_result="> 25%"

Given the entry Cc1occc1CN1Cc2ncnc(Nc3cnc4ccccc4c3)c2C1 [Compound 96] , report its measured inhibition at 1 µM.
> 50%

So what does the record say about inhibition at 1 µM for Cc1ccoc1CN1Cc2ncnc(Nc3cnc4ccccc4c3)c2C1 [Compound 86] ?
> 75%

# inhibition at 1 µM lookup, item Clc1ncc(CN2Cc3ncnc(Nc4cnc5ccccc5c4)c3C2)s1 [Compound 91]
> 50%

###

Measured inhibition at 1 µM, listed per entry.
Target Or Test System: hFAAH (Homo sapiens, UniProt O00519)
Construct: expressed in transfected cells; host or cells: HEK293-TRex (Invitrogen) stably transfected with hFAAH in the pcDNA5-Tet-off vector, or T84 human colon epithelial cells (endogenous hFAAH); used as a microsomal preparation
Sequence (O00519 1-579): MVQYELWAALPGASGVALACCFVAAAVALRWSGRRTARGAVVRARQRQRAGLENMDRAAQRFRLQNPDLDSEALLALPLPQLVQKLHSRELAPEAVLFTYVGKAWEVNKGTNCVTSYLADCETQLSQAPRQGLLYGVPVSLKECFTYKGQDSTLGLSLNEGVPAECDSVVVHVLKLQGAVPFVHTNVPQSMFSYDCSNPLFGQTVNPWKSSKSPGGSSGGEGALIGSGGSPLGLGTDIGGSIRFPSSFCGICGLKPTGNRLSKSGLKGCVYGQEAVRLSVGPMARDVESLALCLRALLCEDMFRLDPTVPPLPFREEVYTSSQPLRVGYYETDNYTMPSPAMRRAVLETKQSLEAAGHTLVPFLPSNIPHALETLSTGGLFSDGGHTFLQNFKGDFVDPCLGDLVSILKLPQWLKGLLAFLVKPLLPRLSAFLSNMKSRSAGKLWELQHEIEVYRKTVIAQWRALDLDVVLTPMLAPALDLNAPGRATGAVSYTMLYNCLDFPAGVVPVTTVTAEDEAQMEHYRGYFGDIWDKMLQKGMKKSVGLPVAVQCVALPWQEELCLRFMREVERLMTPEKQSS
Method Description: Fluorimetric assay with hFAAH microsomes (enzymatic, fluorescence based)
Format: biochemical
Condition Summary: compound at 1 uM, AA-AMC substrate

compound=Cn1nccc1S(=O)(=O)N1Cc2ncnc(Nc3cnc4ccccc4c3)c2C1 experimental_result="> 50%"

What value of inhibition at 1 µM has been recorded for this entry: CC(C)N1Cc2ncnc(Nc3cnc4ccccc4c3)c2C1
< 25%

Item c1ccc(C2CC2)c(CN2Cc3ncnc(Nc4cnc5ccccc5c4)c3C2)c1 has what recorded inhibition at 1 µM?
> 75%

State the recorded inhibition at 1 µM for this entry: CCC(C)CN1Cc2ncnc(Nc3cnc4ccccc4c3)c2C1 (stereo not shown)
> 75%

Need inhibition at 1 µM of Cc1nc(C)c(NC(=O)N2Cc3ncnc(Nc4cnc5ccccc5c4)c3C2)s1 , thanks.
< 25%

Which value of inhibition at 1 µM has been reported for COc1cccc(CN2Cc3ncnc(Nc4cnc5ccccc5c4)c3C2)c1 in the records?
> 75%

Value lookup for inhibition at 1 µM; key = Cc1cccc(CN2Cc3ncnc(Nc4cnc5ccccc5c4)c3C2)c1C
> 75%

Which inhibition at 1 µM is reported for this compound? CCCN1Cc2ncnc(Nc3cnc4ccccc4c3)c2C1
< 25%

# inhibition at 1 µM lookup, item O=S(=O)(c1ccc(-c2cnco2)s1)N1Cc2ncnc(Nc3cnc4ccccc4c3)c2C1
> 25%

Sample c1ccc2ncc(Nc3ncnc4c3CN(CC3CCSCC3)C4)cc2c1 — what was its inhibition at 1 µM?
> 75%

Field request: inhibition at 1 µM | item: O=S(=O)(c1ccccc1OC(F)(F)F)N1Cc2ncnc(Nc3cnc4ccccc4c3)c2C1
> 25%

# lookup: inhibition at 1 µM of OCCCCN1Cc2ncnc(Nc3cnc4ccccc4c3)c2C1
< 25%

// inhibition at 1 µM lookup, key: O=S(=O)(Cc1ccccc1)N1Cc2ncnc(Nc3cnc4ccccc4c3)c2C1
< 25%
